From: ChEMBL document CHEMBL1201862

System: UACC-257
Test: NCI tumour cell line growth inhibition, 48 h
Activity calls are given as the source filed them. Rule as the data show it: active = GI50 up to about 1.1 µM and inactive = higher.
Metric Name: GI50

COC1C=C(Nc2cccc(Cl)c2)C(=O)C1 (configuration not stated): > 100 µM (inactive)

Parameter requested: GI50. Apply to each item below.
1. N=C(N)NS(=O)(=O)c1ccc(Nc2c3ccccc3nc3c(C(=O)N4CCN(CCO)CC4)ccc(Cl)c23)cc1
2. O=C1CCCC/C1=C\c1ccc(Br)cc1
3. COc1cc2c(cc1OC)[C@H]1C(COC(=O)c3ccccc3)CS/C(=N/c3ccccc3)N1CC2 (some centres not stated)
4. CN(C)c1ccc(/C=C2\N=C(c3ccc(N)cc3)OC2=O)cc1
5. Cc1ccc(S(=O)(=O)n2c(-c3ccccc3)c(-c3ccccc3)c3ccccc32)cc1
6. O=C(O)CCSC(=O)Nc1cccc([N+](=O)[O-])c1

> 100 µM (inactive)
26.8 µM (inactive)
> 100 µM (inactive)
> 100 µM (inactive)
> 100 µM (inactive)
> 100 µM (inactive)

Parameter requested: GI50. Apply to each item below.
1. CCOC(=O)NC1C2CC(=O)C(O2)C1OCc1ccccc1 (configuration not stated)
2. N=C(N)NS(=O)(=O)c1ccc(NC(=O)c2cccn3c(=O)c4ccccc4nc23)cc1
3. O=Cc1cc2sc(C=O)cc2s1
4. C/C(=N/N)c1sc(-c2nc(C)c(/C(C)=N\N)s2)nc1C

1: > 100 µM (inactive); 2: 19.7 µM (inactive); 3: > 100 µM (inactive); 4: > 100 µM (inactive)

Parameter requested: GI50. Apply to each item below.
1. O=S(=O)(c1ccccc1)c1ccc(-c2nc(-c3ccc4c(c3)Sc3ccccc3S4)cs2)cc1
2. CC(=O)CC(=O)Nc1ccccc1[N+](=O)[O-]
3. CC(=O)OCCOCNC(=S)N/N=C/c1ccc(Br)s1
4. CC(C)(Br)C(Br)CCC(C)(Br)C(Br)CO (configuration not stated)
5. CCCCCCCCC/C=C1/CC(CO)(COC(=O)c2ccccc2)OC1=O (configuration not stated)
6. CN(C)c1ccc(C=C2N=C(c3ccccc3)N(c3cc(C(=O)c4ccccc4)ccc3N3C(=O)/C(=C/c4ccc(N(C)C)cc4)N=C3c3ccccc3)C2=O)cc1
7. CC(NC(=O)C(C)C(=O)Nc1ccc(C(F)(F)F)cc1)C(N)=O (configuration not stated)
8. Cc1ccc(/C=C2\CCCC(CN3CCCCC3)C2=O)cc1 (configuration not stated)

> 100 µM (inactive)
> 100 µM (inactive)
> 100 µM (inactive)
> 10 µM (inactive)
14.2 µM (inactive)
6.43 µM (inactive)
> 100 µM (inactive)
1.93 µM (inactive)

Parameter requested: GI50. Apply to each item below.
1. CC(=O)OC(C)(C)/N=N/c1ccc(Br)cc1
2. CC(C)C1NC(=O)[C@H](C)OC(=O)[C@@H](C(C)C)NC(=O)[C@@H](C)OC(=O)C(C(C)C)NC(=O)[C@H](C)OC1=O (some centres not stated)
3. C[Si](C)(C)CC(N)=O

5.45 µM (inactive)
> 100 µM (inactive)
> 100 µM (inactive)

====

Tested on: UACC-62
Assay: NCI tumour cell line growth inhibition, 48 h
The source made the active and inactive calls. Cut-off read from the data, not from the text of the source: active = GI50 up to about 1.1 µM and inactive = higher.
A correct response names exactly one class from class 1 (active), class 0 (inactive)

Example entries begin here.
CCCCOP(=O)(OCCCC)/C(C#N)=C/c1ccco1: class 0
O=S(=O)(c1ccccc1)c1ccc(-c2nc(-c3ccc4c(c3)Sc3ccccc3S4)cs2)cc1: class 0
O=C1/C(=C/c2ccccc2)N=C(c2ccccc2)N1n1c(-c2ccccc2)nc2ccccc2c1=O: class 0
Cc1cc2c(c(C#N)c1C)NC(=O)CCC2=O: class 0
COC(=O)C1[C@H](C(=O)OC)C1(Br)CBr (some centres not stated): class 0
COc1ccc(OC)c2c1C=CC(Br)=CC2: class 1

Okay, next one:
For `C/C(Cl)=N/OC(=O)Nc1ccc(S(N)(=O)=O)c(C)c1` , which call appears in the assay record?
class 0

====

Task for the reader: assign each of the following compounds its reported GI50.
Tested on: LOX IMVI
Assay: NCI tumour cell line growth inhibition, 48 h
Active and inactive are the calls of the source. No stated cut-off is given here; in the data, active = GI50 up to about 1.1 µM and inactive = higher.

Parameter requested: GI50. Apply to each item below.
1. C1=CC=C2NCCCCCC/N=C3\C=CC=CC=C3NCCc3cccc(c3)CC/N=C/2C=C1
2. CCOC(=O)c1nc2ccccc2nc1NCc1ccc(OC)c(OC)c1
3. S=c1sc2c(Cl)ncnc2n1-c1ccccc1

4.63 µM (inactive)
> 100 µM (inactive)
4.28 µM (inactive)

====

Test system: HCC 2998
Assay: NCI tumour cell line growth inhibition, 48 h
The source made the active and inactive calls. No stated cut-off is given here; in the data, active = GI50 up to about 1.1 µM and inactive = higher.
A correct response names exactly one class from 1 = active, -1 = inactive

CS(=O)(=O)N(CCC#N)c1ccc(/C=N/NC(=O)CC(=O)Nc2cccc(Cl)c2)cc1: -1
NC(=O)/N=C1\NC(Cc2ccccc2)C(=O)N1Cc1ccccc1 (stereo unspecified): -1

For O=C1CC23CCCCCCCCCCC2(C1)CC(=O)C3 (stereo unspecified) , which call appears in the assay record?
-1

For `O=c1ncccn1[C@@H]1O[C@H](CO)[C@@H](O)[C@@H]1F` , which call appears in the assay record?
-1

For `O=C(O)CCCc1ccc(N(CCCl)CCCl)cc1` , which call appears in the assay record?
-1

For `CCOc1cc(/C=C/C=C/C=C/c2ccc(N(C)C)cc2)[s+]c2ccccc12` , which call appears in the assay record?
-1

For `CCCCCCCCCCCC/C=C\CC[C@@H](O)[C@H](O)CC[C@H](O)[C@@H]1CC[C@@H](CCCCCCCC2=C[C@H](C)OC2=O)O1` , which call appears in the assay record?
-1

For COc1cc([C@@H]2c3cc4c(cc3[C@@H](NCc3ccccc3F)C3COC(=O)[C@@H]32)OCO4)cc(OC)c1O (stereo partly specified) , which call appears in the assay record?
-1

For CC(=O)Oc1c2c(c(CC=C(C)C)c3c1C(=O)C1=C[C@@H]4CC5C(C)(C)OC(C/C=C(/C)C(=O)O)(C4=O)[C@@]15O3)OC(C)(CCC=C(C)C)C=C2 (stereo partly specified) , which call appears in the assay record?
1

For CC(Cc1ccccc1)N(C)Cc1nc(C2CCC([N+](=O)[O-])O2)no1 (stereo unspecified) , which call appears in the assay record?
-1

For `C[Si](C)(C)CC(N)=O` , which call appears in the assay record?
-1

For `CC12C/C(=C\c3ccccc3)C(=O)C3C1CCCC32` , which call appears in the assay record?
-1

For Cc1cn(C2CC(N=[N+]=[N-])C(CO[Si](C)(C)C(C)(C)C)O2)c(=O)[nH]c1=O (stereo unspecified) , which call appears in the assay record?
-1

====

Test system: OVCAR-4
Assay: NCI tumour cell line growth inhibition, 48 h
Calls of active or inactive are those of the source. Rule as the data show it: active = GI50 up to about 1.1 µM and inactive = higher.
Task for the reader: assign each of the following compounds its reported GI50.

For orientation, consider the following solved cases.
C=C[C@@]1(C)CCC2(O)C(CCC3C2(C)CCC[C@@]3(C)COC(=O)CC(=O)OC)C1 (stereo not given in full): 17.5 µM (inactive)
O=C(CNC(=O)OCc1ccccc1)NCCCCC(NC(=O)OCc1ccccc1)C(=O)O (stereo not given): > 100 µM (inactive)

Parameter requested: GI50. Apply to each item below.
1. CC(=O)/N=S(/NC(=O)c1ccc(C)cc1)C(Cl)(Cl)Cl (stereo not given)
2. COC1CCCc2c(OC(C)=O)ccc(OC(C)=O)c21 (stereo not given)
3. CCNc1ncnc2sc(SCc3ccccc3)nc12

1. 31.2 µM (inactive)
2. 35 µM (inactive)
3. > 100 µM (inactive)

Parameter requested: GI50. Apply to each item below.
1. N#Cc1sc2c(c1OC(=O)c1ccc(C(F)(F)F)cc1)c(=O)n(-c1ccccc1)c(=S)n2-c1ccccc1
2. COc1ccc(C)cc(O)c1=O
3. c1cc2nnsc2s1
4. CCOC(=O)c1nc2ccccc2nc1NCc1ccc(OC)c(OC)c1
5. CC(C)(C)c1c(C(C)(C)C)c(=O)c1=O
6. CC(Cc1ccccc1)N(C)Cc1nc(C2CCC([N+](=O)[O-])O2)no1 (stereo not given)

1: 33.8 µM (inactive); 2: 45 µM (inactive); 3: > 100 µM (inactive); 4: > 100 µM (inactive); 5: > 100 µM (inactive); 6: 8.47 µM (inactive)

Parameter requested: GI50. Apply to each item below.
1. CNc1ncnc2c1ncn2C1C=CC(COS(N)(=O)=O)C1 (stereo not given)
2. C=CC1(C(=O)O)CCC(C(C)(C)C)CC1 (stereo not given)
3. CCOC(=O)c1c[nH]c2c(Sc3ccccc3)nccc2c1=O
4. O=c1c2ccc(Cl)cc2oc2c(CNc3ccc(S(=O)(=O)Nc4nccs4)cc3)cccc12

1: > 100 µM (inactive); 2: > 100 µM (inactive); 3: > 100 µM (inactive); 4: > 100 µM (inactive)
